Test method notes: Stability test in a 60° C. drying oven (impurity, content, XRPD)
Format: physicochemical
Study conditions: 60° C. drying oven, 7 days
Counter-ions that a name gives are not always drawn.
Parameter: Content % (%)

# Compound, Parameter, Measured value
measured = [
    ("COC[C@@H](C)N[C@H]1CC[C@H](Nc2cc(-c3csc(NCC4(C#N)CCOCC4)n3)c(Cl)cn2)CC1 [crystal form 1 of the maleate of the compound of formula (I)]", "Content %", 99.88),
    ("COC[C@@H](C)N[C@H]1CC[C@H](Nc2cc(-c3csc(NCC4(C#N)CCOCC4)n3)c(Cl)cn2)CC1 [crystal form 2]", "Content %", 98.56),
    ("COC[C@@H](C)N[C@H]1CC[C@H](Nc2cc(-c3csc(NCC4(C#N)CCOCC4)n3)c(Cl)cn2)CC1 [free base of the compound of formula (I)]", "Content %", 98.42),
    ("COC[C@@H](C)N[C@H]1CC[C@H](Nc2cc(-c3csc(NCC4(C#N)CCOCC4)n3)c(Cl)cn2)CC1 [crystal form A of the fumarate of the compound of formula (I]", "Content %", 99.31),
]

Recorded values, source patent US12384774B2.
